Below, each entry is listed alongside its reported Emax.
# System: PC12 cells
# Assay Procedure: PC12 cell differentiation assay (neurite outgrowth)
# Format: cell-based
# Assay Conditions: Rattus norvegicus, PC-12; PC12 cells in N2 medium, 24 hours, neurites scored; read-out: Maximal Efficacy, induction of PC12 cell differentiation

Sample records with Emax:
Summary for this compound, O=c1c(O)c(-c2ccc(O)c(O)c2)oc2cc(O)ccc12 [fisetin, 3,3′,4′,7-tetrahydroxyflavone] : Emax is 70 to 80%

Summary for this compound, O=c1c(O)c(-c2ccc(O)cc2)oc2cc(O)ccc12 [3,7,4′-THF, 3,4′,7-trihydroxyflavone] : Emax is 70 to 80%

Summary for this compound, O=c1c(O)c(-c2ccc(O)c(O)c2)oc2ccccc12 [3,3′,4′-THF, 3,3′,4′-trihydroxyflavone] : Emax is 80 to 90%

Summary for this compound, O=c1cc(-c2ccc(O)c(O)c2)oc2ccccc12 [3′,4′-DHF, 3′,4′-dihydroxyflavone] : Emax is 40 to 50%

Summary for this compound, O=c1c(O)c(-c2ccc(O)cc2)oc2ccccc12 [3,4′-DHF, 3,4′-dihydroxyflavone] : Emax is 50 to 60%

Summary for this compound, O=c1c(O)c(-c2cccc(O)c2)oc2cc(O)ccc12 [3,7,3′-THF, 3,3′,7-trihydroxyflavone] : Emax is 40 to 50%

Summary for this compound, O=c1cc(-c2ccc(O)c(O)c2)oc2cc(O)ccc12 [7,3′,4′-THF, 3′,4′,7-trihydroxyflavone] : Emax is 50 to 60%

Next compound, Emax to be filled in.
Summary for this compound, O=c1c(O)c(-c2cccc(O)c2)oc2ccccc12 [3,3′-DHF, 3,3′-dihydroxyflavone] : Emax is 40 to 50%

---

# Tested on: HT22 cells
# Assay Procedure: Protection of HT22 cells from oxidative glutamate toxicity (MTT assay)
# Format: cell-based, mouse
# Assay Conditions: Mus musculus, HT-22, 24 h, HT22 cells, 5 mM glutamate, 24 hours, MTT assay; read-out: EC50 (μM), protection from oxidative-stress induced death
Value Type: log10(EC50) (log10 of the value in µM)
Use the decimal logarithm of EC50 (µM).

Summary for this molecule, O=c1c(O)c(-c2ccc(O)cc2)oc2cc(O)ccc12 [3,7,4′-THF, 3,4′,7-trihydroxyflavone] : log10(EC50) is 1.10

Summary for this molecule, O=c1cc(-c2ccc(O)c(O)c2)oc2ccccc12 [3′,4′-DHF, 3′,4′-dihydroxyflavone] : log10(EC50) is -0.05

Summary for this molecule, O=c1c(O)c(-c2ccc(O)c(O)c2)oc2ccccc12 [3,3′,4′-THF, 3,3′,4′-trihydroxyflavone] : log10(EC50) is 0.00

Summary for this molecule, O=c1cc(-c2ccc(O)c(O)c2)oc2cc(O)ccc12 [7,3′,4′-THF, 3′,4′,7-trihydroxyflavone] : log10(EC50) is 0.70

Others:
Summary for this molecule, O=c1c(O)c(-c2ccc(O)cc2)oc2ccccc12 [3,4′-DHF, 3,4′-dihydroxyflavone] : log10(EC50) is 1.00

Summary for this molecule, O=c1c(O)c(-c2ccc(O)c(O)c2)oc2cc(O)ccc12 [fisetin, 3,3′,4′,7-tetrahydroxyflavone] : log10(EC50) is 0.70

Summary for this molecule, O=c1c(O)c(-c2cccc(O)c2)oc2ccccc12 [3,3′-DHF, 3,3′-dihydroxyflavone] : log10(EC50) is 1.08

Summary for this molecule, O=c1c(O)c(-c2cccc(O)c2)oc2cc(O)ccc12 [3,7,3′-THF, 3,3′,7-trihydroxyflavone] : log10(EC50) is 1.23
